# target.desc: Human TRPA1 (Homo sapiens, UniProt O75762)
# Sequence (O75762 whole entry): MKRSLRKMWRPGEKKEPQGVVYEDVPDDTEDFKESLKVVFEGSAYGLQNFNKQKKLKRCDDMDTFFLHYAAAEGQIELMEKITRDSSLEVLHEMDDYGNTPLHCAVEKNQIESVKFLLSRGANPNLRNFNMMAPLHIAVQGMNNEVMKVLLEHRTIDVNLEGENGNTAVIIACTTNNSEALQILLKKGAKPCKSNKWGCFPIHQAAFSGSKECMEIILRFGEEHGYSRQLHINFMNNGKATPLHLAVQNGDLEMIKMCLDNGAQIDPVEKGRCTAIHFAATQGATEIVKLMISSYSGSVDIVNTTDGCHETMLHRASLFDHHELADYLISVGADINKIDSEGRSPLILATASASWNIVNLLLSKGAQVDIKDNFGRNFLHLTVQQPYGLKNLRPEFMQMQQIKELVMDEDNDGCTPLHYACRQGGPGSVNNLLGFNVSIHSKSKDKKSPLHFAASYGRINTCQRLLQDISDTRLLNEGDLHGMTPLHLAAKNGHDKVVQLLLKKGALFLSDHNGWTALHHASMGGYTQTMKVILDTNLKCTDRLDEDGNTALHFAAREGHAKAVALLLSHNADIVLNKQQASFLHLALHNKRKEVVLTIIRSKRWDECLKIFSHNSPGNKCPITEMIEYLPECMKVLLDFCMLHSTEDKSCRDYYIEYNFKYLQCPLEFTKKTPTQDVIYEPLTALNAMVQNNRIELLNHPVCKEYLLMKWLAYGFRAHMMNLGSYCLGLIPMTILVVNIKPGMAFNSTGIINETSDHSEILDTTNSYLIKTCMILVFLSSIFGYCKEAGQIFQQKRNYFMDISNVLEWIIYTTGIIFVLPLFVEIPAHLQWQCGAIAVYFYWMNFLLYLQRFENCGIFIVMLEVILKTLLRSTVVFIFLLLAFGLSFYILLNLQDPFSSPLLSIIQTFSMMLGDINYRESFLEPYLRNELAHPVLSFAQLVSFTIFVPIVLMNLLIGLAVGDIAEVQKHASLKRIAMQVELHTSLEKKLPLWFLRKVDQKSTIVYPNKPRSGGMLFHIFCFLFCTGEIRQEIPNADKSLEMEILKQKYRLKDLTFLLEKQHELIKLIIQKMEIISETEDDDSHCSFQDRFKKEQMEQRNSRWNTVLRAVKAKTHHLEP
# measurement.protocol: Alternative TRPA1 Ca2+ fluorometry assay (hTRPA1/TREx-HEK293 cells, Fluo-4, FDSS 6000)
# Format: cell-based
# Set-up: expressed in transfected cells
# condition.summary: Fluo-4-AM, agonist 6,11-dihydro-5H-dibenzo[b,e]azepine-10-carboxylic acid methyl ester 25 nM, procedure used for Examples 184, 190 to 192, 194 to 316
pIC50: −log10 of the molar value.
readout.type: pIC50

| compound | pIC50 |
| --- | --- |
| O=C(NCc1cc(-c2cccc(F)c2)nc(N2CCN(c3ccccc3F)CC2)n1)[C@@H]1CCCN1S(=O)(=O)c1ccc(F)cc1 [Example 246] | 5.70 |

1: NS(=O)(=O)c1ccc(CCNc2nc(CNC(=O)[C@@H]3CCCN3S(=O)(=O)c3ccc(F)cc3)cc(-c3ccc(Br)cc3)n2)cc1 [Example 301]
2: O=C(NCc1cc(-c2ccc(C(F)(F)F)cc2)nc(N2CCN(c3ccccc3F)CC2)n1)[C@@H]1CCCN1S(=O)(=O)c1ccc(F)c(F)c1 [Example 258]
Pick the one with the larger pIC50: 1 vs 2 Mark your answer with the label of the selected entry. 2
(2: 6.49, 1: 5.25)

1: O=C(NCc1cc(-c2ccc3c(c2)OCO3)nc(NCc2cccnc2)n1)[C@@H]1CCCN1S(=O)(=O)c1ccc(F)cc1 [Example 201]
2: COc1ccc(Nc2nc(CNC(=O)[C@@H]3CCCN3S(=O)(=O)c3ccc(F)cc3)cc(-c3ccc4c(c3)OCO4)n2)cc1 [Example 287]
Compare pIC50: is it lower for 1 or for 2 ? Mark your answer with the label of the selected entry. 1
(1: 5.09, 2: 5.43)
